Data credit: ChEMBL document CHEMBL3046627

Readings of MIC for the listed compounds
system: Pseudomonas aeruginosa; assay: Antibacterial activity against Pseudomonas aeruginosa 71 assessed as growth inhibition after 24 hr by agar dilution method; type: functional; conditions: Pseudomonas aeruginosa, 71, 24 h

Solved cases below.
CC1(C)S[C@@H]2[C@H](NC(=O)[C@H](N)c3ccc(O)cc3)C(=O)N2[C@H]1C(=O)O; 256 µg/mL
Cc1ccc2cccc(OCc3cc4ccccc4cc3COc3cccc4ccc(C)nc34)c2n1; > 500 µg/mL
c1ccc2cc(COc3cccc4cccnc34)c(COc3cccc4cccnc34)cc2c1; > 500 µg/mL
Clc1ccc(OCc2ccccc2COc2ccc(Cl)c3cccnc23)c2ncccc12; 64 µg/mL
c1ccc(COc2cccc3cccnc23)c(COc2cccc3cccnc23)c1; > 500 µg/mL

Prompt line: Let me know recorded MIC for `Clc1ccc(OCc2nc3ccccc3nc2COc2ccc(Cl)c3cccnc23)c2ncccc12` , thanks.
Response line: > 500 µg/mL
